- STUDY_TARGET: human JAK2 (a.a. 828-1132) (Homo sapiens)
- Construct: JAK2 (a.a. 828-1132); His tag (N); made in house; host or cells: insect cells (baculovirus)
- Sequence (O60674 828-1132): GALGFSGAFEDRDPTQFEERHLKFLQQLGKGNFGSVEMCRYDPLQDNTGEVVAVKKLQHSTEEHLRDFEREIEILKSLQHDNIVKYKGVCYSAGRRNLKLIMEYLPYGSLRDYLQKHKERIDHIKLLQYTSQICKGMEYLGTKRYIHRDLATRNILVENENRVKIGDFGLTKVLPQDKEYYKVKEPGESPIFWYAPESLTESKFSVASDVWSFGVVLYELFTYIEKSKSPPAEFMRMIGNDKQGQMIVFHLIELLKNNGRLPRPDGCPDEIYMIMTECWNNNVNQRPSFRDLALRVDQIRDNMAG
- TEST_DETAILS: In vitro JAK kinase assay (HTRF, phosphorylation of a biotinylated peptide), JAK2
- Assay type: biochemical
- TEST_CONTEXT: Table B1
Where a name gives a salt, the structure may show the parent alone.
Listed below: IC50 values for each entry.
METRIC_NAME: IC50 (µM)

molecule="Cn1cncc1C(=O)Nc1cc2cc(c1)Nc1nc(ncc1Cl)Nc1cccc(c1)CC2 [Example B208, trifluoroacetate]" study_target="human JAK2 (a.a. 828-1132) (Homo sapiens)" cmp== recorded_measurement=0.057
molecule="Cc1ncoc1C(=O)N1CC[C@H](NC(=O)Nc2ccc3cc2CCc2cncc(c2)Nc2ncc(Cl)c(n2)N3)C1 [Example B273, bis(trifluoroacetate)]" study_target="human JAK2 (a.a. 828-1132) (Homo sapiens)" cmp== recorded_measurement=1.63
molecule="O=C(Nc1ccc2cc1CCc1cccc(c1)Nc1ncc(Cl)c(n1)N2)Nc1ccccc1C(F)(F)F [Example B111, trifluoroacetate]" study_target="human JAK2 (a.a. 828-1132) (Homo sapiens)" cmp== recorded_measurement=0.006
molecule="O=C(Nc1ccc2cc1CCc1cccc(c1)Nc1ncc(Cl)c(n1)N2)NC12CC3CC(CC(C3)C1)C2 [Example B127, trifluoroacetate]" study_target="human JAK2 (a.a. 828-1132) (Homo sapiens)" cmp== recorded_measurement=0.027
molecule="CC(=O)N1CC[C@@H](NC(=O)Nc2ccc3cc2CCc2cccc(c2)Nc2ncc(Cl)c(n2)N3)C1 [Example B177, trifluoroacetate]" study_target="human JAK2 (a.a. 828-1132) (Homo sapiens)" cmp== recorded_measurement=0.0054
molecule="O=C(NCCO)Nc1ccc2cc1CCc1cccc(c1)Nc1ncc(Cl)c(n1)N2 [Example B241, trifluoroacetate]" study_target="human JAK2 (a.a. 828-1132) (Homo sapiens)" cmp== recorded_measurement=0.0015
molecule="O=S(=O)(c1ccc(Cl)cc1)c1ccc(CN2CCN(Cc3cc4cc(c3)Nc3nc(ncc3Cl)Nc3cccc(c3)CC4)CC2)cc1 [Example B195, tris(trifluoroacetate)]" study_target="human JAK2 (a.a. 828-1132) (Homo sapiens)" cmp== recorded_measurement=0.091
molecule="Cc1noc(C)c1NC(=O)Nc1ccc2cc1CCc1cccc(c1)Nc1ncc(Cl)c(n1)N2 [Example B94, trifluoroacetate]" study_target="human JAK2 (a.a. 828-1132) (Homo sapiens)" cmp== recorded_measurement=0.0038
molecule=CN(Cc1ccc2cc1CCc1cncc(c1)Nc1ncc(Cl)c(n1)N2)CC1CCNCC1 study_target="human JAK2 (a.a. 828-1132) (Homo sapiens)" cmp=> recorded_measurement=0.4
molecule="O=C(Nc1ccc2cc1CCc1cncc(c1)Nc1ncc(Cl)c(n1)N2)N[C@H]1CCN(C(=O)c2ccn[nH]2)C1 [Example B268, bis(trifluoroacetate)]" study_target="human JAK2 (a.a. 828-1132) (Homo sapiens)" cmp== recorded_measurement=0.273
molecule="O=S(=O)(Nc1ccc2cc1CCc1cccc(c1)Nc1ncc(Cl)c(n1)N2)c1cccc(Cl)c1 [Example B138, trifluoroacetate]" study_target="human JAK2 (a.a. 828-1132) (Homo sapiens)" cmp== recorded_measurement=0.0001
molecule="Cc1oncc1C(=O)N1CC[C@H](NC(=O)Nc2ccc3cc2CCc2cncc(c2)Nc2ncc(Cl)c(n2)N3)C1 [Example B266, bis(trifluoroacetate)]" study_target="human JAK2 (a.a. 828-1132) (Homo sapiens)" cmp== recorded_measurement=0.601
molecule="Cc1noc(C)c1S(=O)(=O)Nc1ccc2cc1CCc1cccc(c1)Nc1ncc(Cl)c(n1)N2 [Example B152, trifluoroacetate]" study_target="human JAK2 (a.a. 828-1132) (Homo sapiens)" cmp== recorded_measurement=0.00014

---

- STUDY_TARGET: human JAK2 (a.a. 828-1132) (Homo sapiens)
- Construct: JAK2 (a.a. 828-1132); His tag (N); made in house; host or cells: insect cells (baculovirus)
- TEST_DETAILS: In vitro JAK kinase assay (HTRF, phosphorylation of a biotinylated peptide), JAK2
- Format: biochemical
- TEST_CONTEXT: method AA1 (30 μM ATP) or AA2 (1000 μM ATP), not stated per value
pIC50: −log10 of the molar value. Where a name gives a salt, the structure may show the parent alone.
Give 1 when the value for pIC50 is at least 8. Give -1 when it is less.

compound="COc1ccc(S(=O)(=O)N2CCC(CC(=O)Nc3ccc4cc3CCc3cccc(c3)Nc3ncc(Cl)c(n3)N4)CC2)cc1 [Example A207, trifluoroacetate]" study_target="human JAK2 (a.a. 828-1132) (Homo sapiens)" class_label=-1
compound="O=C(CC1CCN(C(=O)Nc2ccccc2F)CC1)Nc1ccc2cc1CCc1cncc(c1)Nc1ncc(Cl)c(n1)N2 [Example A146, bis(trifluoroacetate)]" study_target="human JAK2 (a.a. 828-1132) (Homo sapiens)" class_label=1
compound="NS(=O)(=O)N1CCCC(C(=O)Nc2ccc3cc2CCc2cccc(c2)Nc2ncc(Cl)c(n2)N3)C1 (stereo not drawn) [Example A73, trifluoroacetate]" study_target="human JAK2 (a.a. 828-1132) (Homo sapiens)" class_label=1
compound="O=C(Nc1ccc2cc1CCc1cccc(c1)Nc1ncc(Cl)c(n1)N2)C1CCN(C(=S)Nc2ccccc2)CC1 [Example A43, trifluoroacetate]" study_target="human JAK2 (a.a. 828-1132) (Homo sapiens)" class_label=1
compound="Cc1noc(C)c1C(=O)N1CCC(C(=O)Nc2ccc3cc2CCc2cccc(c2)Nc2ncc(Cl)c(n2)N3)CC1 [Example A34, trifluoroacetate]" study_target="human JAK2 (a.a. 828-1132) (Homo sapiens)" class_label=-1

---

Listed below: IC50 values for each entry.
- STUDY_TARGET: TYK2 (Homo sapiens, UniProt P29597)
- Sequence (P29597 whole entry): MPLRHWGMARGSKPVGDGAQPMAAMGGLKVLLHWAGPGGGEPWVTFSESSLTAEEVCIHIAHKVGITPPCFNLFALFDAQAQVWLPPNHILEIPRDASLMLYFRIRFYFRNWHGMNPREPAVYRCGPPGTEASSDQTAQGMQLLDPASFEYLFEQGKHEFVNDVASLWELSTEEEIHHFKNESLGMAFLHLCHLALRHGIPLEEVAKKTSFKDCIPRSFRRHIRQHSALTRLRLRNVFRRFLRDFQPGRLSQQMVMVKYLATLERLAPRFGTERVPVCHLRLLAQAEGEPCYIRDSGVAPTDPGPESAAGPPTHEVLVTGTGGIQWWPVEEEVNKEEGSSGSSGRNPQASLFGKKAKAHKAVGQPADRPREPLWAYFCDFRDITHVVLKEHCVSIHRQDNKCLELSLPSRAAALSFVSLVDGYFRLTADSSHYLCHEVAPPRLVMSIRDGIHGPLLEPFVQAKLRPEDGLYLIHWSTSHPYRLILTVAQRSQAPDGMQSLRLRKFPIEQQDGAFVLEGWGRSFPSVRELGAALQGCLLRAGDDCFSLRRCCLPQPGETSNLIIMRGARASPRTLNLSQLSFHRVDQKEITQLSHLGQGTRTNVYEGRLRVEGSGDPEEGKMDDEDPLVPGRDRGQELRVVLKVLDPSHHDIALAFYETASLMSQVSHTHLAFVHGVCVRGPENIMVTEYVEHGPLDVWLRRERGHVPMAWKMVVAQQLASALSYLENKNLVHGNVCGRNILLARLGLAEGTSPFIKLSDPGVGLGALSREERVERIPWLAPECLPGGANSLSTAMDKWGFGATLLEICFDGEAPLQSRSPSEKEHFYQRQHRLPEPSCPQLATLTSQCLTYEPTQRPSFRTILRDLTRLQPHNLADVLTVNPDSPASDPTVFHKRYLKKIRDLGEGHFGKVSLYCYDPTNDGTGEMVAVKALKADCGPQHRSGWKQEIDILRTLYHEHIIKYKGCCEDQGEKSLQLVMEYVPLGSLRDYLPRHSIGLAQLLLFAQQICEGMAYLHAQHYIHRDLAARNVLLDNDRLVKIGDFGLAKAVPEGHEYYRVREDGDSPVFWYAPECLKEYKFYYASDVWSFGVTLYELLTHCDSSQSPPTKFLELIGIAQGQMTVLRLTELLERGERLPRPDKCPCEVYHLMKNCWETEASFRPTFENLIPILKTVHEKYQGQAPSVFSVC
- TEST_DETAILS: TYK2 kinase inhibition (Table A1)
- Format: biochemical
Where a name gives a salt, the structure may show the parent alone.
METRIC_NAME: IC50 (nM)

molecule="Cc1cc(C(=O)N2CC[C@@H](C(=O)Nc3ccc4cc3CCc3cccc(c3)Nc3ncc(Cl)c(n3)N4)C2)no1 [Example A122]" metric_name=IC50 cmp== recorded_measurement=17
molecule="O=C1NCc2cccc(c2)Nc2nc(ncc2Cl)Nc2cccc1c2 [Example C5, hydrochloride]" metric_name=IC50 cmp=> recorded_measurement=1000
molecule="O=C(Nc1ccc2cc1CCc1cccc(c1)Nc1ncc(Cl)c(n1)N2)C1CCN(C(=O)Nc2ccccc2)CC1 [Example A36, trifluoroacetate]" metric_name=IC50 cmp== recorded_measurement=27
molecule="CC(=O)N1CCC(CC(=O)Nc2ccc3cc2CCc2cncc(c2)Nc2ncc(Cl)c(n2)N3)CC1 [Example A76, bis(trifluoroacetate)]" metric_name=IC50 cmp== recorded_measurement=3.9
molecule="CNC(=O)N1CCC(CC(=O)Nc2ccc3cc2CCc2cncc(c2)Nc2ncc(Cl)c(n2)N3)C1 (stereo not drawn) [Example A93, bis(trifluoroacetate)]" metric_name=IC50 cmp== recorded_measurement=43
molecule="O=C(CC1CCN(C(=O)c2ccc(F)cc2)CC1)Nc1ccc2cc1CCc1cncc(c1)Nc1ncc(Cl)c(n1)N2 [Example A193, bis(trifluoroacetate)]" metric_name=IC50 cmp=> recorded_measurement=200

---

- STUDY_TARGET: Recombinant Human Anaplastic Lymphoma Kinase (Homo sapiens, UniProt Q9UM73)
- Construct: purchased Invitrogen, Carlsbad, Calif
- Sequence (Q9UM73 19-1620): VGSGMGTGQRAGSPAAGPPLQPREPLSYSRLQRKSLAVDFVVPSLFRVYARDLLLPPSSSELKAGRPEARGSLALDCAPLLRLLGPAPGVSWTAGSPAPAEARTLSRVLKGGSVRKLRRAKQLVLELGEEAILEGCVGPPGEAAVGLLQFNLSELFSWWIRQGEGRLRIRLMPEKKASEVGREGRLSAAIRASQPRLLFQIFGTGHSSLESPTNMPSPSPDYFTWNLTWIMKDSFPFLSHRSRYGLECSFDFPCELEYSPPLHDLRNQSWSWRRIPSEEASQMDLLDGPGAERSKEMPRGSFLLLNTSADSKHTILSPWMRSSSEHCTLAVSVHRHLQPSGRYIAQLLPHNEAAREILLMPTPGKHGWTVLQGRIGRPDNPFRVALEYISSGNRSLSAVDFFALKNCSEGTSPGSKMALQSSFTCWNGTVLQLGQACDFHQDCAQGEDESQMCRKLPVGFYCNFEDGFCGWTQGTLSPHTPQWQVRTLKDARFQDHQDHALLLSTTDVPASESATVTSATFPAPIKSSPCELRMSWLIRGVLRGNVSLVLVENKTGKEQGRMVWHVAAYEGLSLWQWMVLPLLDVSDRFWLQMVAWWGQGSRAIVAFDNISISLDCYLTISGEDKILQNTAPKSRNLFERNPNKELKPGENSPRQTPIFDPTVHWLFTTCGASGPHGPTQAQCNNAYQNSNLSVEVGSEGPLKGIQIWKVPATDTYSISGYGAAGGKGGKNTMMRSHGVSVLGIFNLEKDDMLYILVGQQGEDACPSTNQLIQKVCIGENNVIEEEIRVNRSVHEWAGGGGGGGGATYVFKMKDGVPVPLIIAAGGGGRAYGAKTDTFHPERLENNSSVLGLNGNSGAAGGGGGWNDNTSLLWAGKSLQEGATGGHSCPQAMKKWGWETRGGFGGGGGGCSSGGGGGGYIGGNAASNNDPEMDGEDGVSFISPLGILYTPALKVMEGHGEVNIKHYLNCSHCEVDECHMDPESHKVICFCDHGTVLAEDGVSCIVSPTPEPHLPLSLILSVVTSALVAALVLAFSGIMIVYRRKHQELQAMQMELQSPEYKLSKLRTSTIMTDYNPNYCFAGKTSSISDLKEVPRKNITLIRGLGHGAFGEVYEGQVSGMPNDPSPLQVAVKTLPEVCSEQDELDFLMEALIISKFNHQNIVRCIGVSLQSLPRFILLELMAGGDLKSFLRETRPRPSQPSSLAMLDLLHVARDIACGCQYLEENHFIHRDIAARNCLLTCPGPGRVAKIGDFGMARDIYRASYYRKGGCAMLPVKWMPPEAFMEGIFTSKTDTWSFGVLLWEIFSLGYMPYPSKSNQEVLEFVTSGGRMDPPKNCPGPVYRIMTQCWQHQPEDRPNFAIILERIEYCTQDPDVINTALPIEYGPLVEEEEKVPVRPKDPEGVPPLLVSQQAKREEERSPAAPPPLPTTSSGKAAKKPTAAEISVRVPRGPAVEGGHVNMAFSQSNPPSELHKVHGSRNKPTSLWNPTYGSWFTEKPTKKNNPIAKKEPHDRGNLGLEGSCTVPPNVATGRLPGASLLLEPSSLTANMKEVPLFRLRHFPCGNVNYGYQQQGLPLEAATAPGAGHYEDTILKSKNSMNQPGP
- TEST_DETAILS: ALK HTRF kinase assay
- Format: biochemical
- TEST_CONTEXT: compound at a concentration of 500 nM or 1 mM (not specified); cells shown as percentage
Structures can show the parent of a compound that is named as a salt.
Listed below: ALK % of inhibition at a concentration of 500 nM or 1 mM values for each entry.
METRIC_NAME: ALK % of inhibition at a concentration of 500 nM or 1 mM

compound="O=C(Nc1cccc(N2CCOCC2)n1)Nc1ccc2cc1CCc1cccc(c1)Nc1ncc(Cl)c(n1)N2 [Example B133, bis(trifluoroacetate)]" recorded_measurement=2.5%
compound="N#Cc1ccc(C(=O)N2CC[C@H](NC(=O)Nc3ccc4cc3CCc3cccc(c3)Nc3ncc(Cl)c(n3)N4)C2)cc1 [Example B235, trifluoroacetate]" recorded_measurement=7.3%
compound="NC1CCN(c2ccnc(Nc3ccc4cc3CCc3cncc(c3)Nc3ncc(Cl)c(n3)N4)n2)CC1 [Example B282, (trifluoroacetate)]" recorded_measurement=0%

---

Listed below: IC50 values for each entry.
- STUDY_TARGET: human JAK2 (a.a. 828-1132) (Homo sapiens)
- Construct: JAK2 (a.a. 828-1132); His tag (N); made in house; host or cells: insect cells (baculovirus)
- TEST_DETAILS: In vitro JAK kinase assay (HTRF, phosphorylation of a biotinylated peptide), JAK2
- Type: biochemical
- TEST_CONTEXT: Table B1
Structures can show the parent of a compound that is named as a salt.
METRIC_NAME: IC50

compound="O=C(O)c1cc2cc(c1)Nc1nc(ncc1Cl)Nc1cccc(c1)CC2 [Example B6, trifluoroacetate]" recorded_measurement="800 nM"
compound="CC(=O)N1CC[C@H](NC(=O)Nc2ccc3cc2CCc2cccc(c2)Nc2ncc(Cl)c(n2)N3)C1 [Example B168, trifluoroacetate]" recorded_measurement="12 nM"
compound="CN(Cc1ccc2cc1CCc1cncc(c1)Nc1ncc(Cl)c(n1)N2)CC1CCN(S(=O)(=O)c2ccccc2)CC1 [Example B341, tris(trifluoroacetate)]" recorded_measurement="146 nM"
compound="CN1CC[C@H](NC(=O)Nc2ccc3cc2CCc2cccc(c2)Nc2ncc(Cl)c(n2)N3)C1 [Example B261, bis(trifluoroacetate)]" recorded_measurement="29 nM"
compound="Cn1cc(C(=O)N2CC[C@H](NC(=O)Nc3ccc4cc3CCc3cncc(c3)Nc3ncc(Cl)c(n3)N4)C2)cn1 [Example B269, bis(trifluoroacetate)]" recorded_measurement="409 nM"
compound="O=C(Nc1ccc2cc1CCc1cccc(c1)Nc1ncc(Cl)c(n1)N2)N[C@@H]1CCN(C(=O)c2ccccc2)C1 [Example B176, trifluoroacetate]" recorded_measurement="7.8 nM"
